experiment_notes: Stimulation of immune response in pretreated spleen cells isolated from Graffi myeloid tumor bearing hamster assessed as number of plaque forming cells after 24 hrs by modified agar-plate method
Assay type: cell-based
condition_notes: cricetinae
measured_parameter: Activity

Nn1c(-c2ccc(-c3ccccc3)s2)n[nH]c1=S ... 4700
CCNc1nnc(-c2cc3c(s2)CCCC3)s1 ... 3928
Nn1c(-c2cc3c(s2)CCCC3)n[nH]c1=S ... 3920

a. CCn1c(-c2cc3c(s2)CCCC3)n[nH]c1=S
b. CCNC(=S)NNC(=O)c1ccc(-c2ccccc2)s1
Lower value of Activity belongs to which: a or b ? Write the label of whichever entry you select.
b
(b: 2010, a: 3700)

Ref: ChEMBL document CHEMBL1152851
